src = the supplement of paper PMC6555819

For each of the sequences below, state its PBM binding z-score.
Tested on: PPARg homodimer (NR concentration 180 nM)
Assay: PBM binding z-score (relative to random genomic background probes); higher = stronger binding; sequences stand for … in GC…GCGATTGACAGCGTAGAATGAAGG
One number for each entry.

1. CTTACTGGGCCAAAAAGGTCATTGATGCCGATAA 4.12
2. CGAACTAGGTCATTGCCAGGACAGTGAATAGTAA 1.04
3. TCGAGTAGGTTAGTCGGGGAATTCAGCCAACATA -0.2

Your task in this section: give PBM binding z-score for each listed record.
1. GGAACGAGGGCAAAGTTGATGGCATCTGTCGACG
2. GCGACTGGGGCATCAGCTGGTTACCATAACTTAA
3. TCGAGTAGGTTAGTCGAGGCATTCAGCCAACATA
4. TCGATTAGTTGATTAGGGCAACCGAAACAGCGGA
5. GCTGCTTGGTCAGGTTGGTCAGCTAACGGGTACG
6. AATACAGGGTCATCGTAGGCCAGAGCACGCACAG
7. CGTCCAAGGTCAATGCTAGGTTAGTGAAAGCATT

-- reply
1: 0.411; 2: -0.402; 3: 0.168; 4: 0.609; 5: -0.123; 6: 3.33; 7: 2.37

Provide each entry's PBM binding z-score from the list below.
1. ACTAGCAGGCAAAGGGTCACTCAAGATTAGTCCG
2. CGTCCAAGGTCAGCAGGTCATTGAAAGCGACGTG

-- reply
1: 2.82; 2: 3.28
